R1 = Variant EC50/WT EC50 listing for selected compounds.
# TGT: human TAS1R2-R838K/TAS1R3-WT (Homo sapiens, UniProt Q7RTX0+Q8TE23, R838K)
# Construct: expressed in transfected cells; host or cells: HEK293T-Gα16gust44
# Sequence (Q8TE23 20-839 R838K): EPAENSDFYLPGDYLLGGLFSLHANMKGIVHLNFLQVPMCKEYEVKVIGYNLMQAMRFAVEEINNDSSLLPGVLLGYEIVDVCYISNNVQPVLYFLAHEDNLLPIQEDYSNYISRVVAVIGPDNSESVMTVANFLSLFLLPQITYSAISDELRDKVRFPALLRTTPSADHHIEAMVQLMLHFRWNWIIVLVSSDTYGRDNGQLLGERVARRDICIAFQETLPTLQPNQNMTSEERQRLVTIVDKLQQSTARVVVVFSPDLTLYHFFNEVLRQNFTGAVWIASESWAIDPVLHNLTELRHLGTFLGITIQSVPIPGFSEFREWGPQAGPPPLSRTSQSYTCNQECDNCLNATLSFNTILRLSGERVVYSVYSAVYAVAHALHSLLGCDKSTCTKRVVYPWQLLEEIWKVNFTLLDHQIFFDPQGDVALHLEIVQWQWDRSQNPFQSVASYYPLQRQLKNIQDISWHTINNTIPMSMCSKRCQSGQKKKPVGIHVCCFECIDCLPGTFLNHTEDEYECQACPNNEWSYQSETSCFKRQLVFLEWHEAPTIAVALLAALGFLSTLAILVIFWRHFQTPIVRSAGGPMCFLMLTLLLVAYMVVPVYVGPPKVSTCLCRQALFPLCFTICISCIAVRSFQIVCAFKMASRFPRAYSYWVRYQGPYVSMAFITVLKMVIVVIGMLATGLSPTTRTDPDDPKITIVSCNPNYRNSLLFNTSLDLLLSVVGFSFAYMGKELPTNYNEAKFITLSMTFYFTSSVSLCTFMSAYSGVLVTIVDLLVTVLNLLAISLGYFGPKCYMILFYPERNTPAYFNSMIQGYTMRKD
# Sequence (Q7RTX0 21-852): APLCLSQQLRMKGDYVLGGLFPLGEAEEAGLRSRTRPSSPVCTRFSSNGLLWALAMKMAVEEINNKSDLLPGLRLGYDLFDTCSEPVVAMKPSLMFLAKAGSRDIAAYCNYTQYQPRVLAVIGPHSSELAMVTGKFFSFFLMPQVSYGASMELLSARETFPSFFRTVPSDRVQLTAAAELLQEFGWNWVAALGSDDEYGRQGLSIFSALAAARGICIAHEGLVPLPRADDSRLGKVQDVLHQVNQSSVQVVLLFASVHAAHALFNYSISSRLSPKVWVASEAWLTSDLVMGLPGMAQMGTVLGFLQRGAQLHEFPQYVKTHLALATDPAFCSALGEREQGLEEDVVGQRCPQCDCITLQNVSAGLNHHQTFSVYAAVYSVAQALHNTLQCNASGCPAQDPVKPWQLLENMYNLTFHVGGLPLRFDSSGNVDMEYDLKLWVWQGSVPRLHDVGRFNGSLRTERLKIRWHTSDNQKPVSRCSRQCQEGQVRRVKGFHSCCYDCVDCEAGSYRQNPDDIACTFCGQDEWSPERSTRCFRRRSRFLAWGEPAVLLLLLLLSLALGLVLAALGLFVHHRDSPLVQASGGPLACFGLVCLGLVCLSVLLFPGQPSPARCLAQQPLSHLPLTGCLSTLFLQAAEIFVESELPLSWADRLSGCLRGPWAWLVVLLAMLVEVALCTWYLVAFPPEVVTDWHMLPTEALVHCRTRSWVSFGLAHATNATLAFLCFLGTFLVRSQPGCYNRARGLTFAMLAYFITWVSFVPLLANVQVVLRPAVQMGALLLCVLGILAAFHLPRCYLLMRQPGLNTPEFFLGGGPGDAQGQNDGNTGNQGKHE
# ASSAY METHOD TEXT: Calcium mobilisation assay, TAS1R2 variant R838K with TAS1R3-WT
# Assay type: cell-based

COMPOUND	R1 = Variant EC50/WT EC50
C[C@H](CC[C@@H](O[C@@H]1O[C@H](CO[C@@H]2O[C@H](CO)[C@@H](O)[C@H](O)[C@H]2O)[C@@H](O)[C@H](O)[C@H]1O[C@@H]1O[C@H](CO)[C@@H](O)[C@H](O)[C@H]1O)C(C)(C)O)[C@H]1CC[C@@]2(C)[C@@H]3CC=C4[C@@H](CC[C@H](O[C@@H]5O[C@H](CO[C@@H]6O[C@H](CO)[C@@H](O)[C@H](O)[C@H]6O)[C@@H](O)[C@H](O)[C@H]5O)C4(C)C)[C@]3(C)[C@H](O)C[C@]12C [Mogroside V, mogroside V]	1.0
COC(=O)[C@H](Cc1ccccc1)NC(=O)[C@H](CC(=O)O)NCCC(C)(C)C [Neotame]	0.8
